system-under-test: T1, human Notch1 NRR_Avi_His recombinant protein (human, UniProt P46531 1434-1737)
T1 construct: Secreted from CHO-PACE cells; cleaved at S1 into an N-terminal ~26 kDa half (LNR-A, B, C, HD1) and a C-terminal ~12 kDa half (HD2 and tag) that stay associated non-covalently; written here as one chain; also called recombinant human Notch1 NRR; human Notch1 NRR immunogen
T1 sequence: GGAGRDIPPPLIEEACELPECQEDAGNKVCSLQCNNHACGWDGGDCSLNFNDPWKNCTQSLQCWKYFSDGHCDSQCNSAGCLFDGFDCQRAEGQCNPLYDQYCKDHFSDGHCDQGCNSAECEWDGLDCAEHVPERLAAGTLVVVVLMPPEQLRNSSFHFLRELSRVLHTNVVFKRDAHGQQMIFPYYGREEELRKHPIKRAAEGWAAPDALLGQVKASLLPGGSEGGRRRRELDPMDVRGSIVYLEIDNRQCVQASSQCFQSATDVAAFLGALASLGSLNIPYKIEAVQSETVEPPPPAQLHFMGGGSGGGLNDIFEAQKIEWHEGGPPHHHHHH
measurement-protocol: competition ELISA on coated human Notch1 NRR_Avi_His; competitor 0.8 nM biotinylated rat 438
measured-attribute: pEC50
Scale explanation: pEC50 corresponds to minus log10 of a concentration expressed in moles per litre.

Field: example entries. Status: answers known.
{"binder": "humanized 438 VH1.1/VL1.0 (antibody, human IgG1, V domains shown) VH: EVQLVESGGGLVQPGGSLRLSCAASGFTFSSFAMAWVRQAPGKGLEWVASISYGGADTYYRDSVKGRFTISRDNAKNSLYLQMNSLRAEDTAVYYCAKDLPYYGYTPFVMDAWGQGTLVTVSS VL: DIQMTQSPSSLSASVGDRVTITCRASQRINTDLHWYQQKPGKAPKLLIYFASQTISGVPSRFSGSGSGTDFTLTISSLQPEDFATYYCQQSNSWPYTFGQGTKLEIK", "recorded-result": 8.96}
{"binder": "humanized 438 VH1.0/VL1.8 (antibody, human IgG1, V domains shown) VH: EVQLVESGGGLVQPGGSLRLSCAASGFTFSSFAMAWVRQAPGKGLEWVASISYGGADTYYRDSVKGRFTISRDNAKNSLYLQMNSLRAEDTAVYYCARDLPYYGYTPFVMDAWGQGTLVTVSS VL: DIQMTQSPSSLSASVGDRVTITCRASQRINTDLHWYQQKPGKAPKVLIKFASQTISGVPSRFSGSGSGTDFTLTISSLQPEDFATYYCQQSNSWPYTFGQGTKLEIK", "recorded-result": 8.68}

Consider the record given below.
// pEC50 lookup, binder = humanized 438 VH1.1/VL1.3 (antibody, human IgG1, V domains shown) VH: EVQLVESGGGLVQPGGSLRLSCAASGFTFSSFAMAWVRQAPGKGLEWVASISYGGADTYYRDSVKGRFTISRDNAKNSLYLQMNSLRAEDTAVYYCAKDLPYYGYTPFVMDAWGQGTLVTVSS VL: DIQLTQSPSSLSASVGDRVTITCRASQRINTDLHWYQQKPGKAPKLLIYFASQTISGVPSRFSGSGSGTDFTLTISSLQPEDFATYYCQQSNSWPYTFGQGTKLEIK , result: 8.60
